I'd appreciate it if you could supply EC50 values for the items below.
Target Or Test System: T1, human BDCA2 (human, UniProt Q8WTT0 1-213)
T1 construct: whole, on cells; also called hBDCA2; Blood dendritic cell antigen 2
T1 sequence (looked up): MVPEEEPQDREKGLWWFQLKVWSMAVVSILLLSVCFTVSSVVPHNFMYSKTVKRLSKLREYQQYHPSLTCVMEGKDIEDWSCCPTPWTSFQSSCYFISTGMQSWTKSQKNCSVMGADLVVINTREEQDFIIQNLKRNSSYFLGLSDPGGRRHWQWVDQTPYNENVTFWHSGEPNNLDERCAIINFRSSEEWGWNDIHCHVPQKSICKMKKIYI
Assay Comment: FACS on CHOK1-hBDCA2 cells; EC50 table under the plot, unit from the x axis (nM)
Units required after the number.

Sample records with EC50:
mab005c (antibody, V domains shown) VH: QVQLKQSGPGLVQPSQSLSITCTVSGFSLTNYGVHWVRQSPGKGLEWLGVIWSGESTDYDAAFISRLSISKDNSKSQVFFKMNSLQADDSAIYYCARRRSHYYGYVMDYWGQGTSVTVSS VL: DIVLTQSPASLAVSLGQRATISCKASQSIDYDGIGYLNWYQHKPGQPPKLLIYAASNLESGIPARFSGSGSGTDFTLNIHPVEEEDAATYYCQQSNEDPPTFGSGTKLEIK: 0.964 nM
mab002c (antibody, V domains shown) VH: QIQLVQSGPELKKPGETVKISCRASGYSFTDYSMHWVKQAPGKGLKWVGWINTETGEPTYADDFKGRFALSLETSATSAYLQINNLKNEDTATYFCARGGDGFPYWYFNVWGAGTTVTVSS VL: DIVLTQSPTSLAVSLGQRTNISCRASQSVSTSSNSYIHWYQQKPGQPPKLLIKYASNLDSGVPARFSGSGSGTDFTLNIHPVEEEDTSTYYCQHSWEIPFTFGSGTKLEIK: 1.61 nM
mab016c (antibody, V domains shown) VH: QVQLKQSGPGLVQPSQSLSITCTVSGFSLTSYGVHWVRQSPGKGLEWLGVIWSGESTDYDAAFISRLSISKDNSKSQVFFRMNSLQADDSAIYYCARRRSHYYGYVMDYWGQGTSVTVSS VL: DIVLTQSPASLAVSLGQRATISCKASQSVDYDGVGYLNWYQHKPGQPPKLLIYAASNLESGIPARFSGSGSGTDFTLNIHPVEEEDAATYYCQQSNEDPPTFGSGTKLEIK: 0.977 nM

Now consider a different binder.
Exam item: Please indicate EC50 recorded for BIIB059 (antibody, V domains shown) VH: DVQLVESGGGLVKPGGSLRLSCAASGFTFSTYTMSWVRQAPGKGLEWVATISPGDSFGYYYPDSVQGRFTISRDNAKNSLYLQMNSLRAEDTAVYYCTRDIYYNYGAWFAYWGQGTLVTVSS VL: DIQLTQSPSSLSASVGDRVTITCKASQSVDYDGDSYMNWYQQKPGKAPKLLIYAASTLESGVPSRFSGSGSGTDFTLTISSLQPEDFATYYCQQANEDPRTFGQGTKVEIKR
Marked response: 1.91 nM
